Tested on: SN12C
Experiment: NCI tumour cell line growth inhibition, 48 h
Active and inactive are the calls of the source. Cut-off read from the data, not from the text of the source: active = GI50 up to about 1.1 µM and inactive = higher.
Reply using exactly one outcome from Yes for active, No for inactive

Request: What call does the record list for COC(=O)[C@@]12CN(C)[C@@H](C(C)(C)C)N1C(=O)OC2c1ccccc1 (stereo partly specified) ?
Response: No

Request: Would you mind telling me which call this test gave `Cc1ccccc1C(=O)N1CCN(C(=O)c2ccccc2C)CC1` ?
Response: No

Request: Assay outcome for CCOC(=O)C1=C(C)N(Cc2ccccc2)C2(O)C=CC(=O)C3C(=O)N(c4ccccc4)C(=O)C132 (stereo unspecified) : what was it?
Response: No

Request: Identify the outcome logged in this assay for the compound shown: `O=C(Cn1c(=O)oc2ccccc21)N(c1ccccc1)c1ccccc1`
Response: No

Request: Test call, this compound: `O=C(CC/C(CC(=O)c1ccc(Cl)cc1)=N/O)Nc1ccc(Cl)c(Cl)c1`
Response: No

Request: Assay outcome for `O=C(Nc1ccccc1)c1cc2ccccc2c(/N=N/c2ccc([N+](=O)[O-])cc2)c1O` : what was it?
Response: No

Request: Assay result, entry Cc1ccc(S(=O)(=O)C2=c3nc4ccccc4cc3=C3C(=O)c4ccccc4C(=O)C32)cc1 (stereo unspecified) — outcome?
Response: No

Request: Could you kindly confirm the outcome this assay logged for Nc1nc(SCCNC(=O)CCc2ccc(O)cc2)nc2c1ncn2C1OC(CO)C(O)C1O (stereo unspecified) ?
Response: No

Request: Test call, this compound: `CC(C)OC(=O)C1=C2c3ncccc3C(=O)N2[C@@H](Cl)[C@@H](Cl)[C@@H]1Cl`
Response: No

Request: Query: recorded result category for `Cc1nnc2n(c1=O)CCN2C` in this test
Response: No

Request: Entry `O=Cc1c(O)c(C(=O)Nc2ccc3[nH]c(=O)[nH]c3c2)cc2ccccc12` : call = ?
Response: No

Request: Record lookup: outcome of this test for CC(=O)OC/C=C(/CCl)CCC(Br)C(C)(C)Br.CC(=O)OC/C=C(\CCl)CCC(Br)C(C)(C)Br (stereo unspecified) ?
Response: No

Request: Which outcome was entered for the compound `CNC(=O)N(C)COC` in this test?
Response: No

Request: Please let me know the test result on file for `O=C1COc2cc(NC(=S)Nc3ccccc3)ccc2N1` .
Response: No

Request: Hi, do you know how `Cc1ccc(SC2=C(N(C)C)C(=O)c3ccccc3C2=O)cc1` came out in this test?
Response: No

Request: Which outcome was assigned to `Oc1ccccc1/C=N/Cc1ccco1` in this test?
Response: No

Request: Recorded call for `O=S1(=O)c2cnccc2N=C(NCc2cccc3ccccc23)N1c1ccccc1` ?
Response: No

Request: Tell me the recorded outcome of this test for `O=C1CSC(=S)N1c1ccc(F)cc1F` .
Response: No

Request: What outcome does the record of this test show for `COC(=O)[C@H](C)[C@@H]1CC[C@](C)(CCC2=C(C)CCCC2(C)C)OO1` ?
Response: No

Request: Recorded test outcome, item `COc1ccc(/C(Cl)=C(\C=N/O)c2ccc(OC)c(OC)c2)cc1OC`
Response: No

Request: Could you kindly confirm the outcome this assay logged for `FC(F)(F)c1cccc(COCCN2CCN(Cc3cccc(C(F)(F)F)c3)CC2)c1` ?
Response: No

Request: Write down the call the test reported for this compound. Item: `O=S(=O)(O)c1cc(Nc2ccnc3ccccc23)c2c(S(=O)(=O)O)cc(S(=O)(=O)O)cc2c1`
Response: No

Request: Called result for `COc1cc(/C=C/C(C)=O)ccc1OP(=O)(O)O`
Response: No

Request: What outcome does the record of this test show for `N=C(N)N/N=C/c1nc2sccn2c1[N+](=O)[O-]` ?
Response: No

Request: Record lookup: outcome of this test for `COc1ccc2c(c1)c1nn(CCN3CCCCC3)c3ccc4c(=O)n(CCN(C)C)c(=O)n2c4c13` ?
Response: Yes

Request: Which outcome was entered for the compound `C/C(=N\NC(=S)NCCCNC(=S)N/N=C(\C)c1ccccn1)c1ccccn1` in this test?
Response: No

Request: Please indicate how the test categorized `N#Cc1c(N)n(-c2cccc(C(=O)O)c2)c(=O)c2cc([N+](=O)[O-])ccc12` .
Response: No

Request: Write down the call the test reported for this compound. Item: CNC(=O)C1OC(n2cnc3c(NCc4cccc(I)c4)nc(Cl)nc32)C(O)C1O (stereo unspecified)
Response: No

Request: Dear all, I need the recorded test outcome for COc1ccc2c3c1OC1c4[nH]c5ccccc5c4CC4(O)C(C2)N(C)CCC314 (stereo unspecified) , thank you.
Response: No

Request: Which result was noted for this compound in the test: `CCCCc1c2c(nc3c1CC/C(=C\c1ccc([N+](=O)[O-])cc1)C3=O)CCCC2`
Response: No

Request: Which outcome did this test record for the compound `CC1(C)CC[C@]2(C(=O)O)CC[C@]3(C)C(=CC[C@@H]4[C@@]5(C)CC[C@@H]6OC(C)(C)OC[C@@]6(C)[C@@H]5CC[C@]43C)[C@H]2C1` ?
Response: No

Request: Lab log entry: `COC(=O)C1=C(C)NC(C)=C(C(=O)OC)C1c1nc2sccn2c1[N+](=O)[O-]` — outcome as called in the assay?
Response: No

Request: Could you check what this test reported for `COc1ccc(CCNC(=O)Cc2ccccc2CO)cc1OC` ?
Response: No

Request: What did the test return for `CCCCC(=O)OC[n+]1ccc(-c2c(COC(=O)NC(C)C)c(COC(=O)NC(C)C)c3n2CCC3)cc1` ?
Response: No

Request: Short answer needed: outcome of this test for `COc1cc(O)c2c(=O)c3c(C)cccc3n(C)c2c1` ?
Response: No

Request: What did this assay record as the result for `Cc1cccc(Cl)c1NC(=O)/C=C/c1ccccc1` ?
Response: No

Request: // param item: CC(C)=CC(O)C/C(C)=C/CC/C(C)=C/CCC1(C)C(CCCO)/C(=C(/C)C=O)CCC1(C)O (stereo unspecified) ; yields the recorded call
Response: No

Request: Dear all, I need the recorded test outcome for `O=C(OCC(Cl)(Cl)Cl)N1CC[C@@H](C2CCCCC2)C1` , thank you.
Response: No

Request: Just curious, what result did O=C1C2=Nc3ccccc3C(O)N2c2ccccc21 (stereo unspecified) get here?
Response: No

Request: Record lookup: outcome of this test for `COC(=O)[C@H](Cc1ccccc1)NC(=O)c1ccc(CNC(=O)/C=C/c2ccc(-c3ccccc3)cc2)cc1` ?
Response: No

Request: // return assay outcome for `CC(=O)NN/C=N/C(C#N)=C(\N)C#N`
Response: No

====

Test system: SR
Experiment: NCI tumour cell line growth inhibition, 48 h
Activity calls are given as the source filed them. Rule as the data show it: active = GI50 up to about 1.1 µM and inactive = higher.
Would you mind answering with one of these outcomes? active, inactive

Request: For this compound, state the assay outcome: `Cc1ccccc1C(=O)N1CCN(C(=O)c2ccccc2C)CC1`
Response: inactive

Request: Look up the recorded call for `COc1ccc(-n2nnnc2C2(Nc3ccccc3)CCN(Cc3ccccc3)CC2)cc1` in this test.
Response: inactive

Request: Test call, this compound: `Cc1nc2ccccc2c(=O)n1NC(=O)c1ccc(N)cc1`
Response: inactive

Request: For COC1/C=C/C(C)C(O)CC(O)/C=C/C(C)C(C(C)C(OC)C(C)CCC(=O)C(C)C(C/C=C/N(C)C=O)OC)OC(=O)/C=C/C=C(\C)CC(OC)CC2=CC(=O)O[C@@H](C(C)C(OC)C1)[C@H]2O (stereo partly drawn) , which call appears in the assay record?
Response: active

Request: Lab log entry: `O=C(Nc1cccc2ccccc12)Oc1ccccc1C1CCCCC1` — outcome as called in the assay?
Response: inactive

Request: I'd appreciate the recorded outcome for C[C@@]1(O)C2CC3CC1(c1ccccc1)CC(/C3=N/O)/C2=N\O (stereo partly drawn) from this test.
Response: inactive

Request: Kindly provide the recorded test outcome for the following compound: `CC(C)(C)OC(=O)N(O)CCCn1cnc2c(NC3CC3)ncnc21`
Response: inactive

Request: Can you look up the reported call for `Cc1c2n(c3ccccc13)S(=O)(=O)c1ccccc1-2` for me?
Response: inactive

Request: Tell me the assay call for `CC1(C)CC(=O)C2=C(C1)NC1=C(C2)C(=O)CC(C)(C)C1` please.
Response: inactive

Request: Test call, this compound: CCC(C)[C@@H](NCc1ccccc1)[C@H](OCc1ccccc1)[C@@H]1COC(C)(C)O1 (stereo partly drawn)
Response: inactive

Request: Recorded test call requested for `FC(F)(F)c1cccc(COCCN2CCN(Cc3cccc(C(F)(F)F)c3)CC2)c1`
Response: inactive

Request: Tell me the assay call for `CNC(=O)N(C)COC` please.
Response: inactive

Request: Can you look up the reported call for `COC[C@@H](/N=C/c1ccc([N+](=O)[O-])cc1)C(C)C` for me?
Response: inactive

Request: Tell me the recorded outcome of this test for `O=[N+]([O-])c1cn[n+]([O-])c2ccccc12` .
Response: active

Request: Record request — test call for COC1OC(CO)C(O)C(O)C1Br (stereo not drawn)
Response: inactive

Request: Hey, what did the test say about `O=C(C(=O)c1cc(-c2ccccc2)nc2ccc3ccccc3c12)c1ccccc1` ?
Response: inactive

Request: Which outcome was entered for the compound `Cc1ccccc1C(=O)Oc1ccc(OCc2ccccc2)cc1` in this test?
Response: inactive

Request: Please share the test call associated with O=C1OC(c2ccccc2)(c2ccccc2)CC1CN1CCOCC1 (stereo not drawn) .
Response: inactive

Request: Recorded test outcome, item COc1cc(C2SCC(=O)N2c2ccccc2Cl)cc(OC)c1OC (stereo not drawn)
Response: inactive

Request: What classification did `Cc1cccc(C)c1NC(=O)/C=C/c1ccccc1` end up with in this test?
Response: inactive

Request: Per the records of this test, what outcome belongs to COc1nc(N)c(NC2OC(CO)C(O)C2O)c(=O)[nH]1 (stereo not drawn) ?
Response: inactive

Request: Identify the outcome logged in this assay for the compound shown: `O=c1c2cccnc2oc2c(Cl)cc(-c3nnn[nH]3)cc12`
Response: inactive

Request: // return assay outcome for CC(=O)Oc1cc(OC(C)=O)c2c(c1)OC(c1ccc(OC(C)=O)c(OC(C)=O)c1)CC2=O (stereo not drawn)
Response: inactive

Request: Which outcome did this test record for the compound `O=P(c1ccccc1)(c1ccccc1)N1O[C@@H](c2ccccc2)C=C[C@H]1c1ccccc1` ?
Response: inactive

Request: Query: recorded result category for `COc1ccc2cc(NC(=O)Nn3cnnc3)ccc2c1` in this test
Response: inactive

Request: Each compound tested received a call. Report the one for CC(=O)NC1C(O)C(O)C(CO)OC1n1nc(SCc2ccccc2)c(=O)[nH]c1=O (stereo not drawn) .
Response: inactive

Request: // outcome(item) with item = `Cc1cc(NC(=O)NC(=O)c2ccccc2N)ccc1Oc1ncc(Br)cn1`
Response: active

Request: Please indicate how the test categorized `COC(=O)CC(=O)Nc1sccc1S(=O)(=O)c1ccccc1` .
Response: inactive

Request: Could you please tell me the result logged for `N/C(=N\c1ccc(Cl)cc1)NS(=O)(=O)c1cc(Cl)c(Oc2ccc([N+](=O)[O-])cc2Cl)c(Cl)c1` in this assay?
Response: inactive

Request: Test call for this compound, please: `O=C(O)c1nc2ccccc2nc1Nc1ccc(F)cc1`
Response: inactive

Request: What is the recorded call for this compound in the test? `CCOc1cc(C(c2c(O)c3ccccc3oc2=O)c2c(O)c3ccccc3oc2=O)ccc1OC`
Response: inactive

Request: Record request — test call for `COc1ccc(/C(Cl)=C(\C=N/O)c2ccc(OC)c(OC)c2)cc1OC`
Response: inactive

Request: Which outcome was entered for the compound CC1=C2CC[C@@]3(C)C(=CCC3O)C2(C)CCC1=O (stereo partly drawn) in this test?
Response: inactive

Request: So what was the verdict on CCOc1ccc(/N=N/C2C(=O)N(C(=O)CC(=O)Nc3ccc(C)cc3)N=C2C)cc1 (stereo not drawn) in this test?
Response: inactive

Request: What did the test return for COc1ccc(CN(Cc2ccc(OC)cc2)C(=O)CC2(O)CCc3ccccc3C2)cc1 (stereo not drawn) ?
Response: inactive

Request: Which outcome was entered for the compound `CC(=O)Oc1cc2oc(=O)cc(C)c2cc1OC(C)=O` in this test?
Response: inactive

Request: Give the logged outcome of this assay for the following compound: `O=c1cc(NNc2ccccc2F)[nH]c(=O)[nH]1`
Response: inactive

Request: Status in this test for `O=c1c2ccccc2n2cnc3ccc(NCCNCCO)c1c32` ?
Response: active

Request: Which outcome was assigned to `COc1ccc(CC(=O)NCCc2ccc(OC)c(OC)c2)cc1Br` in this test?
Response: inactive

Request: Assay result, entry C=CC(C)(O)/C=C/C=C(\C)C(CC1OC1(C)C)OC(=O)/C(C)=C\C (stereo not drawn) — outcome?
Response: inactive

Request: Name the outcome recorded for `CN(CCCNC(=O)c1cc(-c2ccccc2)nc2ccccc12)CCCNC(=O)c1cc(-c2ccccc2)nc2ccccc12` in the assay.
Response: inactive

Request: Recorded test call requested for CC(C)(C)OC(=O)NC(Cc1c[nH]cn1)C(=O)N1CCCC1C(N)=O (stereo not drawn)
Response: inactive

Request: Test call for this compound, please: `O=C(/C=C/c1ccccc1Br)c1ccccc1`
Response: inactive
